# TARGET OF ASSAY: Serine/threonine-protein kinase PknB (Mycobacterium tuberculosis)
# Sequence (P9WI81 whole entry): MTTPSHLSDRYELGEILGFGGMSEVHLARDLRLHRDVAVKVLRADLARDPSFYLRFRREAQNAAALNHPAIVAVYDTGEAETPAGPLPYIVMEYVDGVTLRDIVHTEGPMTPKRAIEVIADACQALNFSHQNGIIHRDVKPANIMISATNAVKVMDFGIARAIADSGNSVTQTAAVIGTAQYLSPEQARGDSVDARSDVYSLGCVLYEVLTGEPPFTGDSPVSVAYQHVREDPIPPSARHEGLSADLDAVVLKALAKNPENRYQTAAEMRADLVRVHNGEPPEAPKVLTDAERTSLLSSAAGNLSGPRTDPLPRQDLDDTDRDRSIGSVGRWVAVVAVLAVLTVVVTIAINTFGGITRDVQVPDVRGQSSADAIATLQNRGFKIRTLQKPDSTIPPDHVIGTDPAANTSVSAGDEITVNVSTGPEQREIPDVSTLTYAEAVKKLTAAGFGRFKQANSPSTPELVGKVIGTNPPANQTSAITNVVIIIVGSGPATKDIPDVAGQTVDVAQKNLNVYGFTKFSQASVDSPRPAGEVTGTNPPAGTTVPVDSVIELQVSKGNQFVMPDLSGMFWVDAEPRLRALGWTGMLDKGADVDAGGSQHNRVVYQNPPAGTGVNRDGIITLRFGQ
REPORTED METRIC: pKi
Scale for pKi: -log10 of concentration given in mol/L; no unit attached.

Example molecules with recorded pKi:
> print(dat)
                  smiles.notation  reported.metric  test.result
1  NNC(=O)CC(=O)Nc1ccc(C(=O)O)cc1              pKi         5.41
2  COc1ccc(NC(=O)CC(=O)NN)c(OC)c1              pKi         5.28
3  NNC(=O)CC(=O)Nc1cc(Cl)cc(Cl)c1              pKi         5.11

So what's the measured pKi for this one? `CCCCc1ccc(NC(=O)CC(=O)NN)cc1` 4.58

And `NNC(=O)CC(=O)Nc1cccc([N+](=O)[O-])c1` ? 4.90

And `NNC(=O)CC(=O)Nc1ccc([N+](=O)[O-])cc1` ? 4.97

And `NNC(=O)CC(=O)Nc1ccccc1[N+](=O)[O-]` ? 4.64

And `NNC(=O)CC(=O)Nc1ccc(F)c(Cl)c1` ? 5.45
